Where do the numbers come from? From the RNAGym collection of RNA variant scans (doi:10.1093/nar/gkz1192).

B1: CPEB3 Ribozyme (parent)
chain: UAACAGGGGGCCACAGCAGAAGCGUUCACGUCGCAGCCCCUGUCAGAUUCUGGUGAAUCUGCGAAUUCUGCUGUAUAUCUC

variants of: B1; test: self-cleavage, relative activity (ratio to wild type); higher = more cleavage; in vitro, sequencing
Kindly state self-cleavage for each of the entries shown.
Answer using only a numeral; do not append any unit.

Q. Tell me the measured self-cleavage of A21U C62U , please.
A. 0.01

Q. Tell me the measured self-cleavage of A21U C38U , please.
A. 0.29

Q. Tell me the measured self-cleavage of A18C U41G , please.
A. 0.53

Q. Tell me the measured self-cleavage of A5C U31C , please.
A. 0.8

Q. Tell me the measured self-cleavage of U31G C40G , please.
A. 0.12

Q. Tell me the measured self-cleavage of U41A G52A , please.
A. 0.19

Q. Tell me the measured self-cleavage of A15U G24C , please.
A. 0.08

Q. Tell me the measured self-cleavage of A28C G61C , please.
A. 0.19

Q. Tell me the measured self-cleavage of A18U U72C , please.
A. 0.42

Q. Tell me the measured self-cleavage of G9C U43C , please.
A. 0.13

Q. Tell me the measured self-cleavage of G53C A65G , please.
A. 0.67
